- Test system: 7G8
- Experiment description: qHTS profiling for inhibitors of Plasmodium falciparum proliferation (AID 504749); also: nearly all actives have a fitted effect of over 60% in size
- Condition label: P. falciparum in erythrocytes, SYBR Green DNA, 72 h; series mostly up to 28.7 µM
Records with an inconclusive call do not appear. The source made the active and inactive calls. Calls follow the shape of the dose curve; as a rule, active = well fitted inhibition curve with a large enough effect; inconclusive = small, poorly fitted or top-dose-only effect; inactive = flat fitted curve, though single readings scatter.
Can you answer with just one of these options? T for active, F for inactive

Compound	Label class
O=C(NCCc1c[nH]c2ccccc12)c1cccnc1	F
O=C(CCN1CCN2CCCC2C1)N1c2ccccc2Sc2ccc(Cl)cc21 (stereo not given)	T
CCCCCCCCNC(C)C(O)c1ccc(SC(C)C)cc1 (stereo not given)	T
CC(C)Cc1ccc(CC(=O)O)cc1	F

Moving on to the next compound.
Check the results log: what was the call for C#C[C@]1(O)CC[C@H]2[C@@H]3CCc4cc(OC)ccc4[C@H]3CC[C@@]21C ?
F
